assay: Pharmacokinetic experiment (blood concentration by HPLC); format: in vivo, mice; settings: male, mouse, blood, other: injection, 20 mg/kg, Injection, time 20 min, read-out: average conc.
readout: concentration at 20 min

CO/N=C(\C(=O)NC1C(=O)N2C(C(=O)O)=C(Sc3cc(N)nc(N)n3)CSC12)c1csc(N)n1 (stereo not shown) | 17100 ng/mL

* * *

Test: Pharmacokinetic experiment (blood concentration by HPLC)
Format: in vivo, mice
Settings: male, mouse, blood, other: injection, 20 mg/kg, Injection, time 60 min, read-out: blood concentration, mouse-2
Protocol: Test example 2: Pharmacokinetic experiment Male mice, each of which has a body weight of […] were used in the present pharmacokinetic experiment. Test compounds were formulated into 1% of solution and then, the solution was administered by oral route and by injection with a dose of 20mg/kg, respectively. […] Concentrations of test compounds in blood were measured by HPLC quantitative analysis and based on the results, pharmacokinetic parameters were calculated.
readout: concentration at 60 min

CO/N=C(\C(=O)NC1C(=O)N2C(C(=O)O)=C(Sc3cc(N)nc(N)n3)CSC12)c1csc(N)n1 (stereo not shown) [Compound No. 25] | 4.6 µg/mL
